Tested on: porcine liver esterase
Experiment: Rate of hydrolysis in buffered porcine liver esterase at 37° C. (HPLC or HPLC-MS)
Assay type: in vitro ADME
Details: pig
Experimental: To assess whether the synthesised cilazapril prodrugs undergo enzymatic cleavage, metabolic studies were carried out in three well established incubation media for the investigation of transdermal administration. […] The kinetics of the hydrolysis of the cilazapril prodrugs in the different incubation media was analysed by HPLC or HPLC-MS. […]
value.kind: half-life

> print(dat)
                                   compound            study.target    result
1  CCOC(=O)[C@H](CCc1ccccc1)NC1CCCN2CCC[C@@H](C(=O)OC(C)OC(C)=O)N2C1=O (stereo partly shown)  porcine liver esterase  37.8 min
2  CCOC(=O)[C@H](CCc1ccccc1)N[C@H]1CCCN2CCC[C@@H](C(=O)OCCN3CCOCC3)N2C1=O  porcine liver esterase    57 min
3  CCOC(=O)[C@H](CCc1ccccc1)NC1CCCN2CCC[C@@H](C(=O)OC(C)OC(=O)OC3CCCCC3)N2C1=O (stereo partly shown)  porcine liver esterase   252 min
4  CCOC(=O)[C@H](CCc1ccccc1)NC1CCCN2CCC[C@@H](C(=O)OC(C)OC(=O)C(C)(C)C)N2C1=O (stereo partly shown)  porcine liver esterase   228 min

###

Assay: Stability in transdermal therapeutic system (10% in BioPSA Hex 7-4302), extraction and HPLC
Format: physicochemical
Details: TTS, 0 months, uncontrolled
value.kind: assay [%]

> print(dat)
                                   compound  result
1  CCOC(=O)[C@H](CCc1ccccc1)N[C@H]1CCCN2CCC[C@@H](C(=O)O)N2C1=O [cilazapril, reference compound]   99.8%
2  CCOC(=O)[C@H](CCc1ccccc1)NC1CCCN2CCC[C@@H](C(=O)OC(C)OC(=O)OC3CCCCC3)N2C1=O (stereo partly shown)  100.0%
3  CCOC(=O)OC(C)OC(=O)[C@@H]1CCCN2CCCC(N[C@@H](CCc3ccccc3)C(=O)OCC)C(=O)N12 (stereo partly shown)   99.3%
4  CCOC(=O)[C@H](CCc1ccccc1)N[C@H]1CCCN2CCC[C@@H](C(=O)OCCN3CCOCC3)N2C1=O   98.1%

###

Assay: Metabolic studies in enzyme-containing incubation mixtures (porcine skin homogenate, human plasma, buffered porcine liver esterase), results in words
Type: in vitro ADME
Details: enzyme-containing incubation mixtures, 37° C.
value.kind: degradation / reaction kinetics of enzymatic hydrolysis

> print(dat)
                                   compound                  result
1  CCOC(=O)[C@H](CCc1ccccc1)N[C@H]1CCCN2CCC[C@@H](C(=O)OCCN3CCOCC3)N2C1=O  fast reaction kinetics
2  CCOC(=O)[C@H](CCc1ccccc1)NC1CCCN2CCC[C@@H](C(=O)OC(C)OC(=O)CN3CCOCC3)N2C1=O (stereo partly shown)  fast reaction kinetics
3  CCOC(=O)[C@H](CCc1ccccc1)NC1CCCN2CCC[C@@H](C(=O)OC(C)OC(=O)OC3CCCCC3)N2C1=O (stereo partly shown)        fast degradation
4  CCOC(=O)[C@H](CCc1ccccc1)NC1CCCN2CCC[C@@H](C(=O)OC(C)OC(=O)C(C)(C)C)N2C1=O (stereo partly shown)        fast degradation
5  CCOC(=O)[C@H](CCc1ccccc1)NC1CCCN2CCC[C@@H](C(=O)OC(C)OC(=O)OC(C)C)N2C1=O (stereo partly shown)        fast degradation
6  CCOC(=O)[C@H](CCc1ccccc1)NC1CCCN2CCC[C@@H](C(=O)OC(C)OC(C)=O)N2C1=O (stereo partly shown)        fast degradation
7  CCOC(=O)OC(C)OC(=O)[C@@H]1CCCN2CCCC(N[C@@H](CCc3ccccc3)C(=O)OCC)C(=O)N12 (stereo partly shown)        fast degradation
